- Test system: CAF#5 (primary prostate cancer-associated fibroblasts of myCAF-like type)
- MEASUREMENT NOTES: drug sensitivity score (DSS2, normalised partial AUC of dose-response, 72 h CellTiter-Glo viability) (DSS (dimensionless)); higher = more sensitive (stronger growth inhibition / cytotoxicity); extreme values may be limits of the assay
Kindly supply the reported drug sensitivity score values for the records listed here.
# respond with the number and nothing more

Input line: Data request, read-out drug sensitivity score, for Nc1ncnc2c1c(COc1cccc(Cl)c1)nn2C1CCOCC1 (tested concentration range 1-10000 nM)
Output line: 1.8

Input line: # iterate: NC1(C(=O)N[C@@H](CCO)c2ccc(Cl)cc2)CCN(c2nc[nH]c3nccc2-3)CC1 [Capivasertib] (tested concentration range 1-10000 nM)
Output line: 3.6

Input line: Check CCn1c(-c2nonc2N)nc2cnc(Oc3cccc(NC(=O)c4ccc(OCCN5CCOCC5)cc4)c3)cc21 (tested concentration range 1-10000 nM) too.
Output line: 1.2

Input line: Input CCN(CC)CCCC(C)Nc1ccnc2cc(Cl)ccc12 (configuration not stated) [Chloroquine] (tested concentration range 10-100000 nM)
Output line: 7.4

Input line: Continue with CCC1(c2ccc(N)cc2)CCC(=O)NC1=O (configuration not stated) [Aminoglutethimide] (tested concentration range 1-10000 nM)
Output line: 0

Input line: Okay, and CN(C)CC#Cc1ccc(OCCCc2sc(N3CCc4cccc(C(=O)Nc5nc6ccccc6s5)c4C3)nc2C(=O)O)c(F)c1 (tested concentration range 1-10000 nM) ?
Output line: 3.2

Input line: And what about the compound COc1cc(OC)cc(N(CCNC(C)C)c2ccc3ncc(-c4cnn(C)c4)nc3c2)c1 [Erdafitinib] (tested concentration range 0.1-1000 nM) ?
Output line: 2.7

Input line: Can you handle C[C@H](Nc1ncnc2nc[nH]c12)c1cc2cccc(Cl)c2c(=O)n1-c1ccccc1 [Duvelisib] (tested concentration range 0-500 nM) next?
Output line: 2.3

Input line: Also check O=C1Cc2cc(C(=O)NC3C[C@H]4CC[C@@H](C3)N4S(=O)(=O)CC3CCN(CCCC(F)(F)F)CC3)c(Cl)cc2N1 (some centres not stated) (tested concentration range 1-10000 nM)
Output line: 0

Input line: How about this compound: CNC(=O)c1ccc(N2C(=S)N(c3cnc(C#N)c(C(F)(F)F)c3)C(=O)C23CCC3)cc1F [Apalutamide] (tested concentration range 1-10000 nM)
Output line: 0.1

Input line: Repeat for the following compound: COc1cc2ncnc(Nc3ccc(F)c(Cl)c3)c2cc1OCCCN1CCOCC1 [Gefitinib] (tested concentration range 1-10000 nM)
Output line: 0.5

Input line: Lookup CC[C@H](CC#N)OC(=O)N[C@@H](C)c1cccc(NC(=O)Nc2ccc(-c3cnco3)c(OC)c2)c1 [AVN944] (tested concentration range 1-10000 nM)
Output line: 11.4

----------
Please respond with reported drug sensitivity score for every item in the list.
- Test system: CAF#5
- MEASUREMENT NOTES: drug sensitivity score (DSS2, normalised partial AUC of dose-response, 72 h CellTiter-Glo viability) (DSS (dimensionless)); higher = more sensitive (stronger growth inhibition / cytotoxicity); extreme values may be limits of the assay
Enter the number alone.

Input line: Quick check: drug sensitivity score of CC[C@@](C)(Nc1ccnc(-c2c[nH]c3ncccc23)n1)C(=O)NCC(F)(F)F [Decernotinib] (tested concentration range 1-10000 nM) ?
Output line: 0

Input line: And for CC[C@H](C)C(=O)O[C@H]1C[C@H](O)C=C2C=C[C@H](C)[C@H](CC[C@@H](O)C[C@@H](O)CC(=O)O)[C@H]21 [Pravastatin] (tested concentration range 1-10000 nM) ?
Output line: 0

Input line: Repeat for the following compound: Cc1ccc(NC(=O)c2ccc(CN3CCN(C)CC3)cc2)cc1Nc1nccc(-c2cccnc2)n1 [Imatinib] (tested concentration range 1-10000 nM)
Output line: 0.6

Input line: // same read-out, input: C=C1C[C@@H]2[C@H](CC[C@]3(C)C(=O)CC[C@@H]23)[C@@]2(C)C=CC(=O)C=C12 [Exemestane] (tested concentration range 1-10000 nM)
Output line: 0

Input line: Please answer likewise for CNC(=O)c1cccc2cc(Oc3ccnc4cc(OCC5(N)CC5)c(OC)cc34)ccc12 [Lucitanib] (tested concentration range 1-10000 nM)
Output line: 3.9

Input line: Now try O=c1[nH]cc(F)c(=O)[nH]1 [Fluorouracil] (tested concentration range 1-10000 nM) .
Output line: 2.9

Input line: Same read-out for CN1CCN(c2ccc3nc(-c4c(N)c5c(F)cccc5[nH]c4=O)[nH]c3c2)CC1 [Dovitinib] (tested concentration range 1-10000 nM) ?
Output line: 0.8

Input line: Cool, now Oc1nc(-c2ccc(C(F)(F)F)cc2)nc2c1CSCC2 [XAV-939] (tested concentration range 1-10000 nM)
Output line: 4.1

Input line: Another compound to look at: Cn1cc(C[C@@H](N)C(=O)O)c2ccccc21 [Indoximod] (tested concentration range 0.5-5000 nM)
Output line: 0.6

Input line: Please give the result for CC[C@@H](C(=O)[C@@H](C)[C@@H](O)[C@H](C)[C@@H]1O[C@@H]([C@@H](CC)C(=O)O)CC[C@@H]1C)[C@H]1O[C@]2(C=C[C@@H](O)[C@]3(CC[C@@](C)([C@H]4CC[C@](O)(CC)[C@H](C)O4)O3)O2)[C@H](C)C[C@@H]1C [Salinomycin] (tested concentration range 5-50000 nM) too.
Output line: 23.6

Input line: How about this compound: O=C(O)c1ccc2c(c1)nc(Nc1cccc(Cl)c1)c1ccncc12 [Silmitasertib] (tested concentration range 1-10000 nM)
Output line: 4.6

----------
- Tested on: CAF#3 (primary prostate cancer-associated fibroblasts of myCAF-like type)
- MEASUREMENT NOTES: drug sensitivity score (DSS2, normalised partial AUC of dose-response, 72 h CellTiter-Glo viability) (DSS (dimensionless)); higher = more sensitive (stronger growth inhibition / cytotoxicity); extreme values may be limits of the assay
Answer each item with its documented drug sensitivity score.
// response body must contain only the number

Input line: Would you mind telling me what drug sensitivity score value was observed for Nc1nc(Nc2ccc3c(c2)CC[C@@H](N2CCCC2)CC3)nn1-c1cc2c(nn1)-c1ccccc1CCC2 [Bemcentinib] (tested concentration range 1-10000 nM) ?
Output line: 8.6

Input line: Then what about the molecule COC(=O)c1ccc2c(c1)[nH]c1ncnc(NCCCN3CCCCC3)c12 [UM729] (tested concentration range 1-10000 nM) ?
Output line: 0.3

Input line: Input CC(C)Cn1cnc2c(N)nc3ccccc3c21 [Imiquimod] (tested concentration range 0.2-2500 nM)
Output line: 0.1

Input line: Could you do the same for CNC(=O)c1ccc(N2C(=S)N(c3cnc(C#N)c(C(F)(F)F)c3)C(=O)C23CCC3)cc1F [Apalutamide] (tested concentration range 1-10000 nM) , please?
Output line: 0.8

Input line: Item: CCS(=O)(=O)Nc1ccc(Oc2ccc(F)cc2F)c(-c2cn(C)c(=O)c3[nH]ccc23)c1 [Mivebresib] (tested concentration range 1-10000 nM)
Output line: 19.3

Input line: Follow-up entry: CCN(CC)CCOc1ccc(C(=C(Cl)c2ccccc2)c2ccccc2)cc1 [Clomifene] (tested concentration range 1-10000 nM)
Output line: 4.2

Input line: Input O=C(Nc1cnn2ccc(N3CCC[C@@H]3c3cc(F)ccc3F)nc12)N1CC[C@H](O)C1 [Larotrectinib] (tested concentration range 0.1-1000 nM)
Output line: 0

Input line: Queued: CC1(C)CNc2cc(NC(=O)c3cccnc3NCc3ccncc3)ccc21 [Motesanib] (tested concentration range 1-10000 nM)
Output line: 5.9

Input line: Another: Cc1ccc(-n2nc(C(C)(C)C)cc2NC(=O)Nc2ccc(OCCN3CCOCC3)c3ccccc23)cc1 [Doramapimod] (tested concentration range 1-10000 nM)
Output line: 1.2

Input line: Next molecule up: CCC(C)n1ncn(-c2ccc(N3CCN(c4ccc(OCC5COC(Cn6cncn6)(c6ccc(Cl)cc6Cl)O5)cc4)CC3)cc2)c1=O (stereo unspecified) [Itraconazole] (tested concentration range 0.5-5000 nM)
Output line: 2.7

Input line: Same lookup for CC[C@]1(O)C[C@H]2CN(CCc3c([nH]c4ccccc34)[C@@](C(=O)OC)(c3cc4c(cc3OC)N(C=O)[C@H]3[C@@](O)(C(=O)OC)[C@H](OC(C)=O)[C@]5(CC)C=CCN6CC[C@]43[C@@H]65)C2)C1 [Vincristine] (tested concentration range 0.1-1000 nM) , please.
Output line: 4.7

----------
For each record, write down the corresponding drug sensitivity score.
- System: CAF#4 (primary prostate cancer-associated fibroblasts of iCAF-like type)
- MEASUREMENT NOTES: drug sensitivity score (DSS2, normalised partial AUC of dose-response, 72 h CellTiter-Glo viability) (DSS (dimensionless)); higher = more sensitive (stronger growth inhibition / cytotoxicity); extreme values may be limits of the assay

Input line: Can you share its drug sensitivity score? I mean this compound: C[C@]12CC[C@H](O)CC1=CC[C@@H]1[C@@H]2CC[C@]2(C)C(c3cccnc3)=CC[C@@H]12 [Abiraterone] (tested concentration range 0.5-5000 nM)
Output line: 0

Input line: Now the compound CC(C)(C)NC(=O)[C@H]1CC[C@H]2[C@@H]3CC[C@H]4NC(=O)C=C[C@]4(C)[C@H]3CC[C@]12C [Finasteride] (tested concentration range 1-10000 nM)
Output line: 0

Input line: What would you report for CCc1cncnc1N1CCN(Cc2nc3ccc(C(F)(F)F)cc3[nH]2)CC1 (tested concentration range 1-10000 nM) ?
Output line: 1.1

Input line: Cool, now CC(C)(O)CNc1nc(Nc2ccnc(C(F)(F)F)c2)nc(-c2cccc(C(F)(F)F)n2)n1 [Enasidenib] (tested concentration range 1-10000 nM)
Output line: 0

Input line: Same thing, different compound: C[C@]1(O)C[C@@H](c2nc(-c3ccc4ccc(-c5ccccc5)nc4c3)c3c(N)nccn32)C1 [Linsitinib] (tested concentration range 1-10000 nM)
Output line: 0

Input line: Similarly, O=C(Nc1cccc(Nc2ncc(Br)c(NCCc3cnc[nH]3)n2)c1)N1CCCC1 [BX-912] (tested concentration range 1-10000 nM) ?
Output line: 3.1
